- Test system: MCP-1
- protocol_description: In vivo tolerability by IV: serum MCP-1 by Luminex
- Set-up: species or system C57BL/6J mice
- particulars: Formulation No. 001, RNA No. 331, male C57BL/6J mice, 1.0 mg*kg/1 intravenous, 2 hours post injection
experimental_readout: MCP-1 at 2 h (pg/mL)

compound="CCCCCCCCCCCOC(=O)CCCCCOC(=O)C(COC(=O)NCCN1CCCCCC1)NC(=O)OCCCCCCCCOC(=O)C(CCCCCC)CCCCCCCC (centres unmarked) [Lipid 924]" experimental_readout="MCP-1 at 2 h" recorded_result=1390
compound="CCCCCCCCCC(=O)OCCCCCCCOC(=O)C(COC(=O)NCCN1CCCCC1)NC(=O)OCCCCCCCCOC(=O)C(CCCCCC)CCCCCCCC (centres unmarked) [Lipid 933]" experimental_readout="MCP-1 at 2 h" recorded_result=1240
compound="CCCCCCCCC(CCCCCC)C(=O)OCCCCCCCCOC(=O)NC(COC(=O)NCCN1CCCCCC1)C(=O)OCCCCCCCCCCC(=O)OCCCCCC (centres unmarked) [Lipid 929]" experimental_readout="MCP-1 at 2 h" recorded_result=783
compound="CCCCC/C=C\\C/C=C\\CCCCCCCCOC(=O)NC(COC(=O)NCCN1CCCCCC1)C(=O)OCCCCCCCOC(=O)CCCCCCCCC (centres unmarked) [Lipid 944]" experimental_readout="MCP-1 at 2 h" recorded_result=3640
compound="CCCCCCCC/C=C\\CCCCCCCC(=O)NC(COC(=O)NCCN1CCCCC1)C(=O)OCCCCCC(=O)OCC(CCCCCCCC)CCCCCCCCCC (centres unmarked) [Lipid 792]" experimental_readout="MCP-1 at 2 h" recorded_result=1620
compound="CCCCC/C=C\\C/C=C\\CCCCCCCCOC(=O)C(COC(=O)NCCN1CCCCCC1)NC(=O)OCCCCCCCCOC(=O)C(CCCCCC)CCCCCCCC (centres unmarked) [Lipid 919]" experimental_readout="MCP-1 at 2 h" recorded_result=1290
compound="CCCCCCCCC(CCCCCC)C(=O)OCCCCCCCCOC(=O)NC(COC(=O)NCCN(C)C)C(=O)OCCCCCCCCOC(=O)C(CCCCCC)CCCCCCCC (centres unmarked) [Lipid 883]" experimental_readout="MCP-1 at 2 h" recorded_result=1860
compound="CCCCC/C=C\\C/C=C\\CCCCCCCCOC(=O)NC(COC(=O)NCCN1CCCCCC1)C(=O)OCCCCCCCCOC(=O)C(CCCCCC)CCCCCCCC (centres unmarked) [Lipid 881]" experimental_readout="MCP-1 at 2 h" recorded_result=1190
compound="CCCCCCCCC(CCCCCC)C(=O)OCCCCCCCCOC(=O)NC(COC(=O)NCCN1CCCCCC1)C(=O)OCCCCCCCCOC(=O)C(CCCCCC)CCCCCCCC (centres unmarked) [Lipid 889]" experimental_readout="MCP-1 at 2 h" recorded_result=760
compound="CCCCC/C=C\\C/C=C\\CCCCCCCCOC(=O)NC(COC(=O)NCCN1CCCCCC1)C(=O)OCCCCCCCCCC(=O)OCCCCCCC (centres unmarked) [Lipid 959]" experimental_readout="MCP-1 at 2 h" recorded_result=1760
compound="CCCCCCCCC(CCCCCC)C(=O)OCCCCCCCCOC(=O)NC(COC(=O)NCCN1CCCCC1)C(=O)OCCCCCCCCOC(=O)C(CCCCCC)CCCCCCCC (centres unmarked) [Lipid 888]" experimental_readout="MCP-1 at 2 h" recorded_result=396
compound="CCCCCCCCCCCOC(=O)NC(COC(=O)NCCN1CCCCC1)C(=O)OCCCCCCCC(=O)OC(CCCCCCCC)CCCCCCCC (centres unmarked) [Lipid 914]" experimental_readout="MCP-1 at 2 h" recorded_result=452
compound="CCCCCCCCC(CCCCCC)C(=O)OCCCCCCCCOC(=O)NC(COC(=O)NCCN1CCCCC1)C(=O)OCCCCCCCCCCC(=O)OCCCCCC (centres unmarked) [Lipid 928]" experimental_readout="MCP-1 at 2 h" recorded_result=574
compound="CCCCC/C=C\\C/C=C\\CCCCCCCCOC(=O)NC(COC(=O)NCCN1CCCCCC1)C(=O)OCCCCCCCC(=O)OC(CCCCCCCC)CCCCCCCC (centres unmarked) [Lipid 858]" experimental_readout="MCP-1 at 2 h" recorded_result=1360
compound="CCCCCCCC/C=C\\CCCCCCCC(=O)NC(COC(=O)NCCN1CCCCC1)C(=O)OCCCCCCCC(=O)OC(CCCCCCCC)CCCCCCCC (centres unmarked) [Lipid 736]" experimental_readout="MCP-1 at 2 h" recorded_result=3830
compound="CCCCC/C=C\\CCOC(=O)CCCCCOC(=O)C(COC(=O)NCCN1CCCCCC1)NC(=O)OCCCCCCCCOC(=O)C(CCCCCC)CCCCCCCC (centres unmarked) [Lipid 955]" experimental_readout="MCP-1 at 2 h" recorded_result=3350
compound="CCCCC/C=C\\C/C=C\\CCCCCCCCOC(=O)NC(COC(=O)NCCN1CCCCCC1)C(=O)OCCCCCC(=O)OCCCCCCCCCCC (centres unmarked) [Lipid 939]" experimental_readout="MCP-1 at 2 h" recorded_result=2440
compound="CCCCCCCCCCCOC(=O)CCCCCOC(=O)C(COC(=O)NCCN1CCCCC1)NC(=O)OCCCCCCCCOC(=O)C(CCCCCC)CCCCCCCC (centres unmarked) [Lipid 923]" experimental_readout="MCP-1 at 2 h" recorded_result=639
compound="CCCCC/C=C\\C/C=C\\CCCCCCCCOC(=O)NC(COC(=O)NCCNC)C(=O)OCCCCCC(=O)OCC(CCCCCCCC)CCCCCCCCCC (centres unmarked) [Lipid 907]" experimental_readout="MCP-1 at 2 h" recorded_result=1020
compound="CCCCCCCCCC(=O)OCCCCCCCOC(=O)C(COC(=O)NCCN1CCCCCC1)NC(=O)OCCCCCCCCOC(=O)C(CCCCCC)CCCCCCCC (centres unmarked) [Lipid 934]" experimental_readout="MCP-1 at 2 h" recorded_result=1360
